ASSAY TARGET: Gingipain K
TEST NAME: cell-based or functional assay
Square brackets hold non-standard residues; d marks the D form. * marks the point of attachment. Hydrocinnamoyl = O=C(CCc1ccccc1)*; CH:CH‑COOEt = CCOC(=O)/C=C/*; AOrn = not defined here
PROPERTY LABEL: log10(k2) (log10 of the value in M⁻¹ s⁻¹)
Record value = log10 of k2 given in M⁻¹ s⁻¹.

BINDER	log10(k2)
LK (modifications not checked) [PhPr-Leu-ALys-CH═CH-CON(CH2-1-naphthyl2]	6.28
LK (modifications not checked) [PhPr-Leu-ALys-CH═CH-CON(Me)CH2-1-naphthyl]	5.99
LK (modifications not checked) [PhPr-Leu-ALys-CH═CH-COOEt]	6.52
LK (modifications not checked) [PhPr-Leu-ALys-CH═CH-COOCH2Ph]	6.40
Hydrocinnamoyl-Leu-[AOrn]-{CH:CH‑COOEt} (reading uncertain; also: printed as PhPr-Leu-AOrn-CH═CH-COOEt) [PhPr-Leu-AOrn-CH═CH-COOEt]	5.97
LK (modifications not checked) [PhPr-Leu-ALys-CH═CH-CONHCH2Ph]	5.37

Attention now shifts to the item below.
Ask: For the binder LK (modifications not checked) [PhPr-Leu-ALys-CH═CH-CON(CH2Ph)2] , give its measured log10(k2) value.
Reply: 6.33
